Recorded viability, T/C for the following compounds
System: 996289-038-R-J1-PDC spheroid viability
assay_name: Anticancer human tumor 996289-038-R-J1-PDC patient-derived colon adenocarcinoma cell line growth inhibition [PI3K]
test_conditions: second compound 0.01 µM; first compound 0.00316 µM; hits give low values; spheroids with HUVEC and MSC

Here is how some compounds turned out for viability, T/C.
compound	viability, T/C
CCN1CCN(Cc2ccc(Nc3ncc(F)c(-c4cc(F)c5nc(C)n(C(C)C)c5c4)n3)nc2)CC1 + CC(Nc1ccc2c(c1)OCCn1cc(N3C(=O)OCC3C(F)F)nc1-2)C(N)=O	98.5%
CC(C)n1nc(-c2ccc3oc(N)nc3c2)c2c(N)ncnc21 + CC(Nc1ccc2c(c1)OCCn1cc(N3C(=O)OCC3C(F)F)nc1-2)C(N)=O	84.6%
CC(=O)c1c(C)c2cnc(Nc3ccc(N4CCNCC4)cn3)nc2n(C2CCCC2)c1=O + CC(Nc1ccc2c(c1)OCCn1cc(N3C(=O)OCC3C(F)F)nc1-2)C(N)=O	101%
Cn1ncnc1[C@H]1c2n[nH]c(=O)c3cc(F)cc(c23)N[C@@H]1c1ccc(F)cc1 + COc1c(OCCCN2CCOCC2)ccc2c3n(c(=NC(=O)c4cnc(N)nc4)nc12)CCN3	95.3%
CC(=O)c1c(C)c2cnc(Nc3ccc(N4CCNCC4)cn3)nc2n(C2CCCC2)c1=O + COc1c(OCCCN2CCOCC2)ccc2c3n(c(=NC(=O)c4cnc(N)nc4)nc12)CCN3	80.2%
CC(C)n1nc(-c2ccc3oc(N)nc3c2)c2c(N)ncnc21 + COc1c(OCCCN2CCOCC2)ccc2c3n(c(=NC(=O)c4cnc(N)nc4)nc12)CCN3	91.3%

[Q] Give the value of viability, T/C reported for the following: CCN1CCN(Cc2ccc(Nc3ncc(F)c(-c4cc(F)c5nc(C)n(C(C)C)c5c4)n3)nc2)CC1 + COc1c(OCCCN2CCOCC2)ccc2c3n(c(=NC(=O)c4cnc(N)nc4)nc12)CCN3
[A] 105%

[Q] Return value of viability, T/C for input Cn1ncnc1[C@H]1c2n[nH]c(=O)c3cc(F)cc(c23)N[C@@H]1c1ccc(F)cc1 + CC(Nc1ccc2c(c1)OCCn1cc(N3C(=O)OCC3C(F)F)nc1-2)C(N)=O , no commentary.
[A] 103%

----------
Test system: 996289-038-R-J1-PDC spheroid viability
assay_name: Anticancer human tumor 996289-038-R-J1-PDC cell line growth inhibition [PI3K];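 also: luminescence used as a proxy for viable cell amount; spheroids exposed to compounds for seven days before viability read; percent viability relative to DMSO vehicle control as 100%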
test_conditions: second compound 0.316 µM; first compound 10 µM; hits give low values; spheroids with HUVEC and MSC
value_type: viability, T/C (%)
Answer with a number only, understood to be in %.

Example entries begin here.
molecule	assay_system	viability, T/C (%)
CC1(C)CCC(Nc2ncc(C(F)(F)F)c(-c3c[nH]c4c(P(C)(C)=O)c(C#N)ccc34)n2)CN1 (stereo not drawn) + COc1c(OCCCN2CCOCC2)ccc2c3n(c(=NC(=O)c4cnc(N)nc4)nc12)CCN3	996289-038-R-J1-PDC spheroid viability	6.2
CCCS(=O)(=O)Nc1ccc(F)c(C(=O)c2c[nH]c3ncc(-c4ccc(Cl)cc4)cc23)c1F + COc1c(OCCCN2CCOCC2)ccc2c3n(c(=NC(=O)c4cnc(N)nc4)nc12)CCN3	996289-038-R-J1-PDC spheroid viability	8.03

// next item, viability, T/C requested
[Q] Indicate its recorded viability, T/C; the molecule in question is C[C@@H](NC(=O)c1ncnc(N)c1Cl)c1ncc(C(=O)Nc2cc(C(F)(F)F)c(Cl)cn2)s1 + COc1c(OCCCN2CCOCC2)ccc2c3n(c(=NC(=O)c4cnc(N)nc4)nc12)CCN3
[A] 37.3
